Test: Transepithelial transport study
Assay type: in vitro ADME, canine
Conditions: dog, MDCK-MDR1, 37 °C, n = 3
readout: Papp A→B at 2 h, 100 ng/mL
Answer by giving the amount and then stating its unit.

-- ask # get_value(readout='Papp A→B at 2 h, 100 ng/mL', item= "COc1cc2c3c(c4ccc(OC(=O)C(C)(C)C)cc4c2cc1OC)C[C@@H]1CCCN1C3" )
-- reply 0.106 ×10⁻⁶ cm/s

Every entry's value here was drawn from paper PMC7076672.
